Data origin, for the record: ChEMBL document CHEMBL1201862

# Experimental Protocol: M. tuberculosis growth inhibition, dose response, purified and synthesized samples, set 9 (AID 602435)
# Type: functional

- Compound: "CC1CCN(C(=O)c2ccc(CNc3c(N4CCCC4)c(=O)c3=O)cc2)CC1"
  IC90: "> 50 µM (active)"
- Compound: "O=C(c1ccc(CNc2c(N3CCOCC3)c(=O)c2=O)cc1)N1CCN(c2ccccc2)CC1"
  IC90: "> 100 µM (active)"
- Compound: "O=C(c1ccc(CNc2c(N3CCCC3)c(=O)c2=O)cc1)N1CCc2ccccc2C1"
  IC90: "> 50 µM (active)"
- Compound: "CC(=O)c1ccc(NC(=O)c2ccc(CNc3c(N4CCOCC4)c(=O)c3=O)cc2)cc1"
  IC90: "> 50 µM (active)"
- Compound: "O=C(NCCc1ccc(Cl)cc1)C1CCC(CNc2c(N3CCCCC3)c(=O)c2=O)CC1 (centres undefined)"
  IC90: "> 50 µM (active)"
- Compound: "Cc1cccc(N2CCN(C(=O)c3ccc(CNc4c(N5CCC(C)CC5)c(=O)c4=O)cc3)CC2)c1C"
  IC90: "> 50 µM (active)"
- Compound: "CC1CC(C)CN(C(=O)c2ccc(CNc3c(N4CCCC4)c(=O)c3=O)cc2)C1 (centres undefined)"
  IC90: "> 50 µM (active)"
- Compound: "CC(C)CCNC(=O)CSc1nc2c(c(=O)[nH]1)CCCCC2"
  IC90: "> 100 µM (active)"
- Compound: "O=C(c1ccc(CNc2c(N3CCCC3)c(=O)c2=O)cc1)N1CCC(c2ccccc2)CC1"
  IC90: "> 100 µM (active)"
